TARGET OF ASSAY: Prostaglandin D2 receptor 2 (Homo sapiens)
Sequence (Q9Y5Y4 whole entry): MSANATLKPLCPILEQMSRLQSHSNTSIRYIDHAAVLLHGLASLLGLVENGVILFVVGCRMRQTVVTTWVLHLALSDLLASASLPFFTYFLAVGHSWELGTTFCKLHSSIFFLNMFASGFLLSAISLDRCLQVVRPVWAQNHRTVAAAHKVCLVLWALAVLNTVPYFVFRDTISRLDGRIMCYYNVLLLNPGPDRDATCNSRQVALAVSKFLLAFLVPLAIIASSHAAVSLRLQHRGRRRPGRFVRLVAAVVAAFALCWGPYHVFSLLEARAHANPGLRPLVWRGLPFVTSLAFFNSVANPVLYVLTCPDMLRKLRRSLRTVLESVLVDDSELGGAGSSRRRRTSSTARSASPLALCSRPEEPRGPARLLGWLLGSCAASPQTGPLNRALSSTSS
METHOD: Displacement of [3H]PGD2 from human CRTH2 receptor expressed in CHO cell membrane after 120 mins by scintillation counting
Recorded Ki determines the group label, using low band: < 500 nM; middle band: ≥ 500 nM and < 600 nM; high band: ≥ 600 nM

Take a look at these entries with their results.
1. CCCNC(=O)c1ccccc1OCc1cccc(C)c1OCC(=O)O : low band
2. CCc1nn(CC(=O)O)c(CC)c1Cc1ccc2ccccc2c1 : high band
3. CCc1nn(Cc2cc(Cl)ccc2Cl)c(CC)c1CC(=O)O : high band
4. CCc1nn(Cc2ccc3ccccc3c2)c(CC)c1CC(=O)O : middle band
5. Cc1ccc(Cl)cc1OCc1ccccc1OCC(=O)O : middle band
6. O=C(O)Cn1cnc2c1CCN(C(=O)c1csc(-c3ccccc3)n1)C2 : high band
7. O=C(O)COc1ccccc1COc1ccc(Cl)cc1-c1ccno1 : low band

Field: next compound
Q: The entry to classify is CCc1nn(Cc2cccc(Br)c2)c(CC)c1CC(=O)O ; which class holds it?
Result: middle band
